Tested on: primary rat oligodendrocyte progenitor cells
Assay: Oligodendrocyte toxicity assay, protection of oligodendrocyte progenitors (OLP) against SIN-1, LDH release
Assay type: cell-based
Conditions: 10 nM compound, 1 hour pretreatment, SIN-1 toxin, LDH after 24 hours
# strict inequality: % Protection (SIN-1*) OLP 10 nM < 40% yields y, everything else yields n

>>> label("OCc1cc(Br)c(-c2ccc(O)cc2)c(-c2ccoc2)c1")
"y"
>>> label("OCc1cc(Br)c(-c2ccc(O)cc2)c(-n2cccc2)c1")
"y"
>>> label("OCc1cc(Br)c(-c2ccc(O)cc2)c(Br)c1")
"n"
>>> label("CN(C)c1cc(CO)cc(Br)c1-c1ccc(O)cc1")
"n"
>>> label("O=[N+]([O-])c1cc(CO)cc(Br)c1-c1ccc(O)cc1")
"y"
>>> label("OCc1cc(Cl)c(-c2ccc(O)cc2)c(Cl)c1")
"y"
